- Test system: 229E human corona virus (hCoV)
- assayProtocol: 229E live virus assay (CPE, ATPlite readout) in MRC-5 cells
- Type: cell-based, hCoV-229E
- conditionNotes: Human coronavirus 229E, MRC5, 144 h; MRC-5 cells, MOI 0.05, 6 days at 34° C., ATPlite, duplicate; read-out: 229E EC50
readoutLabel: EC50

In [3]: df
Out[3]:
                                 itemsmiles    result
0  CC(C)C[C@@H](C(=O)N1C[C@]2(C[C@H]1C#N)C(=O)Nc1ccccc12)N(C)C(=O)C(=O)Nc1n[nH]c2ccccc12  < 100 nM
